Test system: Lactobacillus bifidus
Experiment: Effect on intestinal bacteria: number of Lactobacillus bifidus in feces
Format: in vivo, ICR mice
Details: mouse, in vivo, po, 500 mg/kg/day
Reported values of Number of Lactobacillus bifidus after the administration for individual entries
reportedMetric: Number of Lactobacillus bifidus after the administration

INSERT INTO results (molecule, reportedvalue) VALUES
  ('Cc1nnc(SCC2=C(C(=O)O)N3C(=O)[C@@H](NC(=O)Cn4cnnn4)[C@H]3SC2)s1 [SODIUM CEFAZORIN, reference compound]', '9.1 Log10 (number of bacteria/g feces)'),
  ('COC(=O)CNC(=O)c1ccc(NC(=O)C2=C(C)CSC3C(NC(=O)[C@H](N)c4ccccc4)C(=O)N23)cc1 (some centres unmarked)', '8.4 Log10 (number of bacteria/g feces)'),
  ('COC(=O)Cc1ccc(NC(=O)C2=C(C)CSC3C(NC(=O)[C@H](N)c4ccccc4)C(=O)N23)cc1 (some centres unmarked)', '8.3 Log10 (number of bacteria/g feces)'),
  ('COC(=O)CNC(=O)c1ccc(NC(=O)C2=C(COC(C)=O)CSC3C(NC(=O)CC#N)C(=O)N23)cc1 (centres unmarked)', '8.4 Log10 (number of bacteria/g feces)'),
  ('COC(=O)Cc1ccc(NC(=O)C2=C(COC(C)=O)CSC3C(NC(=O)CC#N)C(=O)N23)cc1 (centres unmarked)', '8.4 Log10 (number of bacteria/g feces)');
